Sourced from the supplement of paper PMC8253809

Test system: SUDIPGIV (diffuse intrinsic pontine glioma line)
assay info: growth inhibition (% activity, log2 RLU normalised to DMSO / staurosporine); higher = more growth inhibition
test context: 33 µM
The molecules listed here are annotated with their growth inhibition.
# number only, unit % dropped from output

Cc1nnc(C(=O)NC(C)(C)c2nc(C(=O)NCc3ccc(F)cc3)c(O)c(=O)n2C)o1	-0.0786

Prompt: Name the recorded growth inhibition of CCCc1cc(C(N)=S)ccn1 , assay system SUDIPGIV.
Response: -2.46

Prompt: Name the recorded growth inhibition of O=C1c2ccccc2C(=O)C1c1ccccc1 , assay system SUDIPGIV.
Response: 0.701

Prompt: Name the recorded growth inhibition of CCCN1CCCC[C@H]1C(=O)Nc1c(C)cccc1C , assay system SUDIPGIV.
Response: -1.01

Prompt: Name the recorded growth inhibition of CC(=O)SCC(Cc1ccccc1)C(=O)NCC(=O)OCc1ccccc1 (stereo not given) , assay system SUDIPGIV.
Response: -1.43

Prompt: Name the recorded growth inhibition of O=c1cc[nH]c(=O)[nH]1 , assay system SUDIPGIV.
Response: 0.441
